Target: PBP2 (Escherichia coli, UniProt P0AD65)
Construct: using bacterial membranes as the source of PBPs; endogenous in cells; host or cells: E. coli MC4100 membrane preparation
Test: Membrane PBP binding assay, competition with Bocillin FL
Design: species or system E. coli MC4100
Property name: IC50

q: Consider the compound N[C@@H](C(=O)N[C@@H]1C(=O)N2C(C(=O)O)=C(Cl)CS[C@H]12)c1ccccc1 [CEF, cefaclor, reference compound] and give its measured IC50.
a: > 50 µM

---

Biological target: PBP3 (Pseudomonas aeruginosa, UniProt G3XD46)
Construct: using bacterial membranes as the source of PBPs; endogenous in cells; host or cells: P. aeruginosa ATCC 27853 membrane preparation
Assay: Membrane PBP binding assay, competition with Bocillin FL
Settings: P. aeruginosa ATCC 27853 membranes; read-out: IC50 PBP3
Property name: IC50 (µM)
Give bare numbers, in µM.

These recorded examples may help you get a feel for the data.
Compound	Unit name	IC50
O=C(CCC(=O)N(CCCCNC(=O)c1cccc(O)c1O)CCCNC(=O)c1cccc(O)c1O)NCCCCCN(O)C(=O)CCCC(=O)NC(C(=O)NC1C(=O)N2C(C(=O)O)=C(Cl)CSC12)c1ccccc1 (centres unmarked)	µM	2.01
N[C@@H](C(=O)N[C@@H]1C(=O)N2C(C(=O)O)=C(Cl)CS[C@H]12)c1ccccc1 [CEF, cefaclor, reference compound]	µM	39
O=C(CN(CCCCNC(=O)c1cccc(O)c1O)C(=O)c1cccc(O)c1O)NC(C(=O)NC1C(=O)N2C(C(=O)O)=C(Cl)CCC12)c1ccccc1 (centres unmarked)	µM	3.2

Kindly consider the entry below.
q: Returns the measured IC50 for the input compound. Input: CC1(C)SC2C(NC(=O)C(NC(=O)CN(CCCCNC(=O)c3cccc(O)c3O)C(=O)c3cccc(O)c3O)c3ccccc3)C(=O)N2C1C(=O)O (centres unmarked)
a: 0.16

---

Test system: E. coli ΔampC
Assay: MIC, Keio mutant
Assay type: cell-based, Escherichia coli
Settings: Escherichia coli, MHBCA
Kindly supply the reported MIC values for the records listed here.
Give bare numbers, in µM.

Completed entries (count: 4):
Compound	MIC [µM]
CC1(C)S[C@@H]2[C@H](NC(=O)[C@H](N)c3ccccc3)C(=O)N2[C@H]1C(=O)O [AMP, ampicillin, reference compound]	6.3
N[C@@H](C(=O)N[C@@H]1C(=O)N2C(C(=O)O)=C(Cl)CS[C@H]12)c1ccccc1 [CEF, cefaclor, reference compound]	3.1
O=C(CN(CCCCNC(=O)c1cccc(O)c1O)C(=O)c1cccc(O)c1O)NC(C(=O)NC1C(=O)N2C(C(=O)O)=C(Cl)CCC12)c1ccccc1 (centres unmarked)	0.006
O=C(CCC(=O)N(CCCCNC(=O)c1cccc(O)c1O)CCCNC(=O)c1cccc(O)c1O)NCCCCCN(O)C(=O)CCCC(=O)NC(C(=O)NC1C(=O)N2C(C(=O)O)=C(Cl)CSC12)c1ccccc1 (centres unmarked)	13

q: Tell me the measured MIC of CC1(C)SC2C(NC(=O)C(NC(=O)CN(CCCCNC(=O)c3cccc(O)c3O)C(=O)c3cccc(O)c3O)c3ccccc3)C(=O)N2C1C(=O)O (centres unmarked) , please.
a: 0.024

---

Biological target: PBP4 (Escherichia coli)
Construct: using bacterial membranes as the source of PBPs; endogenous in cells; host or cells: E. coli MC4100 membrane preparation
Test: Membrane PBP binding assay, competition with Bocillin FL
Design: species or system E. coli MC4100
Property name: IC50 (µM)
Numbers only, in µM.

q: I have this compound here, N[C@@H](C(=O)N[C@@H]1C(=O)N2C(C(=O)O)=C(Cl)CS[C@H]12)c1ccccc1 [CEF, cefaclor, reference compound] , and I need its recorded IC50.
a: 40.2
